Measured Ratio Ki by item
Assay: Selectivity ratio of Ki for mu opioid receptor to Ki for kappa opioid receptor

compound	Ratio Ki
CCOC(=O)c1ccc([C@@H]2C[C@]3(C)[C@H]4C(=O)[C@@H](OC(C)=O)C[C@@H](C(=O)OC)[C@]4(C)CC[C@H]3C(=O)O2)cc1C(=O)OCC	> 13
COC(=O)[C@@H]1C[C@H](OC(C)=O)C(=O)[C@H]2[C@@]1(C)CC[C@H]1C(=O)O[C@H](C3=CC4OC3c3ccccc34)C[C@]21C (stereo partly drawn)	> 3
CCOC(=O)C1=C(C(=O)OCC)C2OC1C=C2[C@@H]1C[C@]2(C)[C@H]3C(=O)[C@@H](OC(C)=O)C[C@@H](C(=O)OC)[C@]3(C)CC[C@H]2C(=O)O1 (stereo partly drawn)	> 25
